# Target under test: human MMP-12 (UniProt P39900 106-470)
# Sequence (P39900 106-470): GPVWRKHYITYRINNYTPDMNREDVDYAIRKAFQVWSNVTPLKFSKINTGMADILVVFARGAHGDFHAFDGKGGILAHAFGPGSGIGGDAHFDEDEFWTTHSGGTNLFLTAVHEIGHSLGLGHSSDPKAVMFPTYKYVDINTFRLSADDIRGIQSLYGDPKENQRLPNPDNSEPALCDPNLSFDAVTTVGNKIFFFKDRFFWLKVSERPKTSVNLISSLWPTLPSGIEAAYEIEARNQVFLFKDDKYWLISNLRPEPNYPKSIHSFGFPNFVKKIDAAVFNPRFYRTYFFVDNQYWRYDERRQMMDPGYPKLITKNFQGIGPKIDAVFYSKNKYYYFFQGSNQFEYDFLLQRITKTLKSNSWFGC
Readout label: pKd
Field pKd (float): negative decimal logarithm of the concentration in molar.

Any idea what pKd was measured for 539B-M131A06 (antibody, V domains shown) VH: EVQLLESGGGLVQPGGSLRLSCAASGFTFSWYWMHWVRQAPGKGLEWVSGISPSGGMTMYADSVKGRFTISRDNSKNTLYLQMNSLRAEDTAVYYCARDIVGPYSAGLFDYWGRGTLVTVSS VL: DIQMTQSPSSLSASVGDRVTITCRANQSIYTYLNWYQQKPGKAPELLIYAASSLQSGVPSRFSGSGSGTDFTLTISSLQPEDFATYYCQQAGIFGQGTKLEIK ?
9.74

Any idea what pKd was measured for 539B-M0065-E12 (Fab, V domains shown) VH: EVQLLESGGGLVQPGGSLRLSCAASGFTFSWYNMHWVRQAPGKGLEWVSGISPSGGNTMYADSVKGRFTISRDNSKNTLYLQMNSLRAEDTAVYYCAKDIRGAYSSGLFDYWGRGTLVTVSS VL: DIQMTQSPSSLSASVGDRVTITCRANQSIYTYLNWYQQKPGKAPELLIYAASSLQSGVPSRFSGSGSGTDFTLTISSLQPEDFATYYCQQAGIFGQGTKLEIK ?
8.96

Next binder, pKd to be filled in.
Any idea what pKd was measured for 539B-M0071-D09 (Fab, V domains shown) VH: EVQLLESGGGLVQPGGSLRLSCAASGFTFSPYWMHWVRQAPGKGLEWVSGISSSGGDTLYADSVKGRFTISRDNSKNTLYLQMNSLRAEDTAVYYCAKDIRGAYSSGLFDYWGRGTLVTVSS VL: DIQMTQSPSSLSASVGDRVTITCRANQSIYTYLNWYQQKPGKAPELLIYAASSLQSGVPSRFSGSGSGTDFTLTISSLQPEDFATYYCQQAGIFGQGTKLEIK ?
8.38
